growth: recorded values
System: COLO 205 colon
Assay: NCI-60 one-dose screen, 48 h (100 = growth as untreated, 0 = no growth, -100 = all killed)
Conditions: 10 µM unless noted
Experimental: Cells are grown in 96 well plates and exposed to the test compound for 48 hours. Compounds are tested at a single concentration, which is 10^-5 M for most compounds. The reported endpoint is percent growth (GI% or GIPRCNT), where numbers from 0 - 100% represent growth inhibition, and numbers from -100% - 0 represent cell death. For example, a value of 40 represents 60% growth inhibition. A value of 0 means no net growth occurred over the course of the experiment. […]
The panel holds about 83,000 compounds, 20% with a hit somewhere; the sample as a whole holds those more often.
readout name: growth (%)

# molecule, assayed system, readout name, recorded measurement
data = [
    ("Cc1ccc(/C=C/C(=O)c2ccc(S(=O)(=O)NCCNc3nc(N(C)C)nc(N4CCOCC4)n3)cc2)cc1", "COLO 205 colon", "growth", 114),
    ("Cc1ccc(C(=O)Nc2cc(-n3ccnc3)cc(C(F)(F)F)c2)cc1-n1cc(-c2cnc3cccnn23)nn1", "COLO 205 colon", "growth", 42.2),
    ("CN1CCN(C(=O)Oc2cc3c(c4ccccc24)[C@H](CCl)CN3C(=O)c2cc3cc(OCCCN4CCC4)ccc3[nH]2)[C@@H]2CSSC[C@H]21", "COLO 205 colon", "growth", -65.5),
    ("CC1=C(C(=O)OCc2ccccc2)C(c2cccc3ccccc23)n2c(nc3ccccc32)N1 (configuration not stated)", "COLO 205 colon", "growth", 13.9),
    ("CN1CCN(CCS(=O)(=O)Nc2cc(-c3ccc4ncnc(Nc5ccc(F)c(Cl)c5)c4c3)cnc2Cl)CC1", "COLO 205 colon", "growth", -31.9),
    ("COc1ccc2nc(NC(=O)c3ccc(N(C)C)cc3)sc2c1", "COLO 205 colon", "growth", 89.5),
    ("COc1ccc(-c2cc(C)nc3[nH]c(=O)sc23)cc1", "COLO 205 colon", "growth", 119),
    ("COc1ccc(NC(=O)Cn2c(/C=C/c3cccc(OC)c3)nc3ccccc3c2=O)cc1", "COLO 205 colon", "growth", 71.6),
    ("CCOc1ccccc1NC(=O)N/C(N)=N/c1nc2ccccc2s1", "COLO 205 colon", "growth", -78.1),
    ("COc1ccc2oc(=O)c(-c3csc(N/N=C(\\C)c4cc(OC)c(OC)c(OC)c4)n3)cc2c1", "COLO 205 colon", "growth", 99.8),
    ("COC(=O)c1cc(C(=O)CBr)n2c1ccc1c3ccccc3ccc12", "COLO 205 colon", "growth", 38.7),
    ("CN1CCN(C(=O)Oc2cc3c(c4ccccc24)[C@H](CCl)CN3C(=O)c2cc3cc(OCCCN4CCC4)ccc3[nH]2)[C@H]2CSSC[C@H]21", "COLO 205 colon", "growth", -81.5),
    ("COc1cccc(NC(=O)c2ccc(NC(=O)CCl)s2)c1", "COLO 205 colon", "growth", 40.2),
    ("O=c1ccc(Cn2c(C(F)(F)F)cc3c(Cl)ncnc32)c[nH]1", "COLO 205 colon", "growth", 62.6),
    ("N#CC1=C(c2ccco2)Nc2c(c(-c3ccccc3)nn2-c2ccccc2)C12C(=O)Nc1ccc(Br)cc12 (configuration not stated)", "COLO 205 colon", "growth", 86.9),
    ("COc1cc(/C=C/C(=O)c2cnn(-c3cc(=O)[nH]c4ccc(C)cc34)c2C)cc(OC)c1OC", "COLO 205 colon", "growth", -91.6),
    ("Cn1cc(-c2cc(N)n3nc(-c4c[nH]c5ccc(F)cc45)cc3n2)c2cccnc21", "COLO 205 colon", "growth", -79.1),
    ("C/C(=N/O)c1ccc(NC(=O)CSc2nnc(-c3ccc(-c4nc5ccc(Cl)cc5[nH]4)cc3)o2)cc1", "COLO 205 colon", "growth", 50.3),
    ("COc1ccc2c(c1)C(Sc1ccc(Cl)cc1)c1c(nc(N)c(C#N)c1N)O2 (configuration not stated)", "COLO 205 colon", "growth", 87.2),
    ("CN(C)c1nc(NCCNS(=O)(=O)c2ccc(C(=O)/C=C/c3ccc(Cl)cc3)cc2)nc(N2CCOCC2)n1", "COLO 205 colon", "growth", 21.1),
    ("COc1ccc(-c2cc(-c3cc(C(C)C)c(O)cc3C)nn2-c2ccc(S(N)(=O)=O)cc2)cc1", "COLO 205 colon", "growth", 122),
    ("N#CCc1nnc(NC(=O)c2ccc(-n3c(=O)[nH]c4ccccc4c3=O)cc2)s1", "COLO 205 colon", "growth", 105),
    ("CN1CCN(c2ccc3c4c(cccc24)C(=O)N(c2cccc(-c4nn(-c5ccccc5)cc4-c4nc5ccccc5s4)c2)C3=O)CC1", "COLO 205 colon", "growth", 91.1),
    ("O=C(Nc1ccc(Cl)c(C(F)(F)F)c1)N1CCN(c2cc(-c3cn(-c4ccccc4)nc3-c3cccc(O)c3)ccn2)CC1", "COLO 205 colon", "growth", -2.61),
    ("O=C(CSc1nc2ccccc2c(=O)[nH]1)NNC(=O)c1ccccc1Cl", "COLO 205 colon", "growth", 124),
    ("COc1cc(NC(=O)CSc2nnc(-c3ccc(-c4nc5ccc(Cl)cc5[nH]4)cc3)o2)cc(OC)c1OC", "COLO 205 colon", "growth", 74.2),
    ("COc1ccc(-c2nc3ccc(-c4nnc(SCc5ccccc5)o4)cc3[nH]2)cc1", "COLO 205 colon", "growth", 44.6),
]
